I'd be grateful if you could share measured composite z-score for these entries.
Molecular target: Neurogenic locus notch homolog protein 3 (Homo sapiens) (UniProt Q9UM47)
Sequence (Q9UM47 whole entry, looked up): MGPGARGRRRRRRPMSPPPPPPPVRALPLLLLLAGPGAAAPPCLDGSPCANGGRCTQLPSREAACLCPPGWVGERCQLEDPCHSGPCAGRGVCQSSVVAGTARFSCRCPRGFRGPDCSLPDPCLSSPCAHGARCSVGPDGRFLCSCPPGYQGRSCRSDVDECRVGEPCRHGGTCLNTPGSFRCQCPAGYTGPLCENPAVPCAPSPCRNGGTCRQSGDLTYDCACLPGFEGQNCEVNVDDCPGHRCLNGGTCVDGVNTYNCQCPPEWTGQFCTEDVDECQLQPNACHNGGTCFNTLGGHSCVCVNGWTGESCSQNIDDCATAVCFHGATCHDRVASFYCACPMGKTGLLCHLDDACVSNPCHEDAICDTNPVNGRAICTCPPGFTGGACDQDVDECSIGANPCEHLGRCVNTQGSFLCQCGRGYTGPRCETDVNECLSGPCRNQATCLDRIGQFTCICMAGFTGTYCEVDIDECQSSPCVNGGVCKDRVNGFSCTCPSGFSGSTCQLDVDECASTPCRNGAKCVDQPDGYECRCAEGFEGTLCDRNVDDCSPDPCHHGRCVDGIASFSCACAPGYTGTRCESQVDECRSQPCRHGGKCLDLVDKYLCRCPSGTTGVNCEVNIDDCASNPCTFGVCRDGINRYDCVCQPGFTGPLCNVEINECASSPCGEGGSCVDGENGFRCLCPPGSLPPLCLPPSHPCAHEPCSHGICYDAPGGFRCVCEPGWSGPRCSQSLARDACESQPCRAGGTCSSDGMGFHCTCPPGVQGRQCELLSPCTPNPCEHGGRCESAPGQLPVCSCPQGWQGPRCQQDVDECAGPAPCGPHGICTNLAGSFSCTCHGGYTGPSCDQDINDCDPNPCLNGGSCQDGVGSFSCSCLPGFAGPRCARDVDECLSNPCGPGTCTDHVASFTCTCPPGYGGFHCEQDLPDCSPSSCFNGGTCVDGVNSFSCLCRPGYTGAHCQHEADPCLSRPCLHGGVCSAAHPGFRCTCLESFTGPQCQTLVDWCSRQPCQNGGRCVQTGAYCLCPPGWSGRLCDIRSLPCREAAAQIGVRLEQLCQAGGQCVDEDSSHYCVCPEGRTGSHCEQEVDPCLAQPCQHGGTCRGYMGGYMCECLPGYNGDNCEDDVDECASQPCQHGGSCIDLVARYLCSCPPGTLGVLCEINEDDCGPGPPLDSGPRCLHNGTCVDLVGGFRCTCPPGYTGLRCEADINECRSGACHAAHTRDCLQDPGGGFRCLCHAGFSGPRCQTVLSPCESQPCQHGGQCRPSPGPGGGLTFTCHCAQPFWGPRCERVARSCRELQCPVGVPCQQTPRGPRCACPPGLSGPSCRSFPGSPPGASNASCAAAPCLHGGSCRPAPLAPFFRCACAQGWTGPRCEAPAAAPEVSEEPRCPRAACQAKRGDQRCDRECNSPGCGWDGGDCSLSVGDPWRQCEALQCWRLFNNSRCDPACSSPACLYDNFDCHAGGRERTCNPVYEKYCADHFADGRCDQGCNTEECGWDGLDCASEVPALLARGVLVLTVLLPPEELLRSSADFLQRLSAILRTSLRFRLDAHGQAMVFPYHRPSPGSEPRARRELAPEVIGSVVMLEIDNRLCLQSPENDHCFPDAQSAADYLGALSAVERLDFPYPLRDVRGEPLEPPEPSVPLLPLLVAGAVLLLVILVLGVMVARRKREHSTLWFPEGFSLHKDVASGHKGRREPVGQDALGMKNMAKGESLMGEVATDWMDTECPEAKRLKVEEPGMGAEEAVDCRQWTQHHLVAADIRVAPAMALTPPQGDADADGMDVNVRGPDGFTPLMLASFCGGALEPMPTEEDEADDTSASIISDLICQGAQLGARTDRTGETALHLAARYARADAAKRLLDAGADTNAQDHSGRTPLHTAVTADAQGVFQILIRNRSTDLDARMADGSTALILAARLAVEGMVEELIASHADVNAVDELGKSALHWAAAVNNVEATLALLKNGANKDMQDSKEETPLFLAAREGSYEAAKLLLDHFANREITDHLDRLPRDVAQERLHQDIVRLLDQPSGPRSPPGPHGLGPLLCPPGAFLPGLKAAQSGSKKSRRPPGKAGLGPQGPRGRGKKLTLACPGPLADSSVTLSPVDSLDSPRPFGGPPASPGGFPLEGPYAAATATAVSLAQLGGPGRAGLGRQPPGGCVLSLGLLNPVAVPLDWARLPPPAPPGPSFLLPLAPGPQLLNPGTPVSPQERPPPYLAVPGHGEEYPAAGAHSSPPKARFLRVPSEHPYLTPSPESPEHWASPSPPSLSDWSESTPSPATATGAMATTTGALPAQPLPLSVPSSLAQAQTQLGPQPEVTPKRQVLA
Assay: NOTCH3 binders on small-molecule microarray, primary screen, biochemical, 635/667 nm fluorescence (AID 1096)
Conditions: NOTCH3 binding, 635 nm fluorescence, higher = more signal
Give bare numbers.

COC(=O)[C@@]1(Cc2ccccc2)[C@H]2c3cc(C(=O)N4CCCC4)n(Cc4ccc(C(F)(F)F)nc4)c3C[C@H]2CN1C(=O)c1ccccc1: 1.03
C=C(CCCC)/C(=C/C[C@H](OC(C)=O)c1cccc(OCCO)c1)c1cc(C(=O)OC)ccc1OC: 0.195
CC(C)C[C@@H]1NC(=O)C([C@@H](C)OCc2ccccc2)NC(=O)[C@@]23C(=O)N[C@@H](Cc4ccccc4)C2[C@H](C)[C@@]2(C)O[C@H]2C3/C=C/CC/C=C/CNC1=O (some centres not stated): 0.767
CCCC=C(CCC)[C@@H](NC(=O)c1ccccc1)c1ccc(C(=O)OC)cc1: 0.997
N#Cc1ccc(C(O)C2C=CC3C(=O)NC(=O)C3N2Nc2ccccn2)cc1 (configuration not stated): -0.124

Parameters: items (list). Returns: composite z-score for each item.
1. CC(C)C(=C=CC[C@@H](O)c1cccc(OCCO)c1)CCO
2. COc1ccc(C#Cc2ccc3c(c2)[C@]2(C(=O)N3)[C@H](c3ccc(OCCO)cc3)N3[C@H](c4ccccc4)[C@H](c4ccccc4)OC(=O)[C@H]3[C@@H]2C(=O)O)cc1

stdout:
0.454
1.04

###

Test: splicing luciferase reporter signal modulators, primary screen, spliceosome inhibition project, cell-based, HEK293, splice +/- reporter (AID 1101);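 further: HEK293 cells carrying a splicing-competent luciferase reporter gene; test concentration not given here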
Details: luminescence, 24 h, higher = more signal, called active from +8 up or from −8 down
QUANTITY_NAME: z-score
Give bare numbers.

Parameters: items (list). Returns: z-score for each item.
1. COc1ccc([Si](C)(C)[C@@H]2[C@@H](CCO)O[C@]3(C(=O)N(Cc4ccccc4)c4ccc(N5C(=O)c6ccccc6Oc6ccccc65)cc43)[C@H]2C)cc1
2. O=C1OCCC=C[C@H]2OC34C=CCN(CCN5CCOCC5)C(=O)[C@H]3N(CCCO)C(=O)[C@@H]4C12 (some centres undefined)

stdout:
1. -1.28
2. -1.12

###

Tested on: glycogen synthase kinase-3 (GSK3A per assay name; protocol says GSK3B)
Experiment: GSK3 binders on small-molecule microarrays, primary screen, biochemical, small-molecule microarray, 635 nm fluorescence, GSK3A (AID 1103); further: the record names both GSK3A and GSK3B
Conditions: small-molecule microarray binding, fluorescence 635 nm; higher = more signal
QUANTITY_NAME: composite z-score
Numbers only.

Worked examples, 6 molecules total:
CC(C)C[C@H]1NC(=O)[C@@]23C(=O)N[C@@H](Cc4ccccc4)C2[C@H](C)[C@@]2(C)O[C@H]2C3/C=C/C/C=C\CNC(=O)[C@@H]2CCCN2C1=O (some centres not stated): 0.47
O=C1O[C@@H](c2ccccc2)[C@@H](c2ccccc2)N2[C@@H](c3ccc(O)cc3)[C@]3(C(=O)Nc4ccc(C#CC5=CCCCC5)cc43)[C@@H](C(=O)N3CCCCCCC3)[C@H]12: 1.29
COc1ccc([Si](C)(C)[C@@H]2[C@@H](CCO)O[C@]3(C(=O)N(Cc4ccccc4)c4ccc(N5C(=O)c6ccccc6Oc6ccccc65)cc43)[C@H]2C)cc1: -1.02
[N-]=[N+]=Nc1ccccc1[C@@H]1OC(c2ccc(OCCCO)cc2)=N[C@]1(Cc1ccccc1)C(N)=O: -0.235
COC(=O)C1(CC(C)C)C=C2C(=C(C(C)C)C(=O)C2C)CN1 (configuration not stated): -2
CC(C)C[C@@H]1NC(=O)[C@H]2C[C@@H](C(=O)NCCCCCNC(=O)CS)[C@@H](c3ccc(O)cc3)N2C1=O: 1.33

stdin: For O=C1OCCC=C[C@H]2OC34C=CCN(c5ccc(Cl)cc5)C(=O)[C@H]3N(CCO)C(=O)[C@@H]4C12 (some centres not stated) , what is its reported composite z-score?
stdout: -0.695
